molecules and their reported EC50
biological target: TEAD4 YAP50-100 (Homo sapiens, UniProt Q15561); assay: TEAD4-YAP HTRF (TR-FRET) protein-protein interaction assay; conditions: TEAD4, YAP peptide 50-100, HTRF; read-out: TEAD4 YAP50-100 HTRF combined: EC50
Sequence (Q15561 217-434 limits assumed): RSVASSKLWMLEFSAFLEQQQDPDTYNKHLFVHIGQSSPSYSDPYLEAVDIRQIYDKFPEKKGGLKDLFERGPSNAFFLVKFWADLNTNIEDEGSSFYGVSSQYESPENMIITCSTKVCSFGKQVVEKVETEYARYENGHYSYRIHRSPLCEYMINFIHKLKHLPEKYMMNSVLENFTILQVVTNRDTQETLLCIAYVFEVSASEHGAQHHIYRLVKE
RECORDED_ENDPOINT: EC50 (nM)

INSERT INTO results (molecule, value_reported) VALUES
  ('O=C(c1nn2c(=O)cc(-c3ccc(C4CCCCC4)cc3)[nH]c2c1C(=O)N1CC(CF)C1)N1CCCC1', 1020),
  ('Cc1nccnc1-c1nn2c(=O)cc(-c3ccc(-c4ccccc4)cc3)[nH]c2c1C(=O)N1CC(CF)C1', 610),
  ('CN(C)C(=O)c1nn2c(=O)cc(-c3cc(F)c(C4CCCCC4)c(F)c3)[nH]c2c1C(=O)N1CC(CF)C1', 210),
  ('Cc1cncc(-c2nn3c(=O)cc(-c4ccc(C5CCCCC5)cc4)[nH]c3c2C(=O)N2CC(CF)C2)n1', 130),
  ('Cc1cnc(-c2nn3c(=O)cc(-c4ccc(C5CCCCC5)cc4)[nH]c3c2C(=O)N2CC(CF)C2)cn1', 340),
  ('Cc1nccnc1-c1nn2c(=O)cc(-c3ccc(C4CCCCC4)cc3)[nH]c2c1C(=O)N1C[C@H](CF)[C@@H]1C (single isomer, unassigned) [Isomer B, Example 41]', 30);

====

target: TEAD2 YAP50-100 (Homo sapiens); assay: TEAD2-YAP HTRF (TR-FRET) protein-protein interaction assay; type: binding; details: TEAD2, YAP peptide 50-100, HTRF
Sequence (Q15562 217-447): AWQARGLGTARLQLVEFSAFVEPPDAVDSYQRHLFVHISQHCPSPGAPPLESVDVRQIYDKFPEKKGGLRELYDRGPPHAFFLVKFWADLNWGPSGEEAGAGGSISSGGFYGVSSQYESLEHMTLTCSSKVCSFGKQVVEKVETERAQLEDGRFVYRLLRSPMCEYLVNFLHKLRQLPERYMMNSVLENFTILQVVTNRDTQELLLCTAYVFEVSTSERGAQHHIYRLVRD
RECORDED_ENDPOINT: TEAD2 YAP50-100 HTRF combined: Max % Inhibition

INSERT INTO results (molecule, value_reported) VALUES
  ('O=C(c1c(-c2ccccc2)nn2c(=O)cc(-c3ccc(C4CCCCC4)cc3)[nH]c12)N1CC(CF)C1 [Compound 38]', '61.5%'),
  ('O=C(c1c(-c2ncccn2)nn2c(=O)cc(-c3ccc(CC4CCCC4)cc3)[nH]c12)N1CC(CF)C1 [Compound 24]', '66.0%'),
  ('O=C(c1c(C2CNCCO2)nn2c(=O)cc(-c3ccc(C4CCCCC4)cc3)[nH]c12)N1CC(CF)C1 (single isomer, unassigned) [Enantiomer A, Example 63]', '66.0%'),
  ('CCCCCCC/C=C/c1cc(=O)n2nc(-c3nccnc3C)c(C(=O)N3C[C@H](CF)[C@@H]3C)c2[nH]1 [Compound 70]', '67.0%'),
  ('N#Cc1nccnc1-c1nn2c(=O)cc(-c3ccc(C4CCCCC4)cc3)[nH]c2c1C(=O)N1CC(CF)C1 [Compound 8]', '51.0%'),
  ('Cc1cnc(-c2nn3c(=O)cc(-c4ccc(C5CCCCC5)cc4)[nH]c3c2C(=O)N2CC(CF)C2)cn1 [Compound 26]', '70.0%'),
  ('CC1CCN1C(=O)c1nn2c(=O)cc(-c3ccc(C4CCCCC4)cc3)[nH]c2c1C(=O)N1CC(CF)C1 (single isomer, unassigned) [Enantiomer A, Example 33]', '67.5%');

====

molecules and their reported EC50
biological target: TEAD3 YAP50-100 (Homo sapiens); experiment: TEAD3-YAP HTRF (TR-FRET) protein-protein interaction assay; settings: TEAD3, YAP peptide 50-100, HTRF; read-out: TEAD3 YAP50-100 HTRF combined: EC50
Sequence (Q99594 173-435 limits assumed): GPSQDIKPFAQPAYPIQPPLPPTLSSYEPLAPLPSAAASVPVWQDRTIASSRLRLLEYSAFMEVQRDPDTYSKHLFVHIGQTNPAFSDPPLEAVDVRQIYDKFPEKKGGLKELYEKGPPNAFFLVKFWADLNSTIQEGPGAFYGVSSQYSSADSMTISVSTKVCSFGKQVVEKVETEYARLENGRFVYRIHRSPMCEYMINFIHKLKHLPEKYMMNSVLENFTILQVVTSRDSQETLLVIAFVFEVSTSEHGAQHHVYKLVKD
RECORDED_ENDPOINT: EC50

INSERT INTO measurements (molecule, recorded_endpoint, value_reported) VALUES
  ('COc1nccnc1-c1nn2c(=O)cc(-c3ccc(C4CCCCC4)cc3)[nH]c2c1C(=O)N1CC(CF)C1', 'EC50', '180 nM'),
  ('O=C(c1c(-c2ncccn2)nn2c(=O)cc(-c3ccc(C4CCCCC4)c(F)c3)[nH]c12)N1CC(CF)C1', 'EC50', '210 nM'),
  ('C[C@H]1[C@@H](CF)CN1C(=O)c1c(C(=O)N(C)C)nn2c(=O)cc(-c3ccc(C4CCCCC4)cc3)[nH]c12', 'EC50', '130 nM'),
  ('C[C@@H]1[C@H](CF)CN1C(=O)c1c(-c2ncccn2)nn2c(=O)cc(-c3ccc(C4CCCCC4)cc3)[nH]c12 (single isomer, unassigned) [Isomer A, Example 40]', 'EC50', '140 nM'),
  ('Cc1nccnc1-c1nn2c(=O)cc(-c3ccc(O[C@H](c4ccccc4)C(F)(F)F)cc3)[nH]c2c1C(=O)N1CC(CF)C1', 'EC50', '510 nM'),
  ('O=C(c1c(-c2ncccn2)nn2c(=O)cc(-c3ccc(CC4CCCC4)cc3)[nH]c12)N1CC(CF)C1', 'EC50', '20 nM'),
  ('CC1CCN1C(=O)c1nn2c(=O)cc(-c3ccc(C4CCCCC4)cc3)[nH]c2c1C(=O)N1CC(CF)C1 (single isomer, unassigned) [Enantiomer B, Example 33]', 'EC50', '150 nM'),
  ('Cc1cnc(-c2nn3c(=O)cc(-c4ccc(C5CCCCC5)cc4)[nH]c3c2C(=O)N2CC(CF)C2)cn1', 'EC50', '140 nM');

====

biological target: TEAD4 YAP50-100 (Homo sapiens); test: TEAD4-YAP HTRF (TR-FRET) protein-protein interaction assay; format: binding; conditions: TEAD4, YAP peptide 50-100, HTRF
RECORDED_ENDPOINT: TEAD4 YAP50-100 HTRF combined: Max % Inhibition (%)

INSERT INTO assay_data (compound, value_reported) VALUES
  ('CN(C)C(=O)c1nn2c(=O)cc(-c3ccc(CC4CCCC4)cc3)[nH]c2c1C(=O)N1CC(CF)C1', 51.5),
  ('CC(CO)c1nn2c(=O)cc(-c3ccc(C4CCCCC4)cc3)[nH]c2c1C(=O)N1CC[C@@H](C#N)C1 (single isomer, unassigned) [Final product obtained using Enantiomer A from Step 4, Example 54]', 47.5),
  ('Cc1nccnc1-c1nn2c(=O)cc(-c3ccc(CC4CCCC4)cc3)[nH]c2c1C(=O)N1C[C@@H](CF)[C@H]1C (single isomer, unassigned) [Isomer A, Example 42]', 48.5),
  ('COc1ccnc(-c2nn3c(=O)cc(-c4ccc(C5CCCCC5)cc4)[nH]c3c2C(=O)N2CC(CF)C2)n1', 50.0),
  ('CC1CCN1C(=O)c1nn2c(=O)cc(-c3ccc(C4CCCCC4)cc3)[nH]c2c1C(=O)N1CC(CF)C1 (single isomer, unassigned) [Enantiomer B, Example 33]', 49.0),
  ('O=C(c1c(-c2nccc(C(F)(F)F)n2)nn2c(=O)cc(-c3ccc(C4CCCCC4)cc3)[nH]c12)N1CC(CF)C1', 48.0),
  ('CCCCc1ccc(-c2cc(=O)n3nc(-c4nccnc4C)c(C(=O)N4CC(CF)C4)c3[nH]2)cc1', 59.0),
  ('CCc1ccnc(-c2nn3c(=O)cc(-c4ccc(C5CCCCC5)cc4)[nH]c3c2C(=O)N2CC(CF)C2)n1', 55.0),
  ('C[C@@H]1[C@H](CF)CN1C(=O)c1c(-c2ncccn2)nn2c(=O)cc(-c3ccc(CC4CCCC4)cc3)[nH]c12 (single isomer, unassigned) [Isomer B, Example 43]', 51.0);

====

molecules and their reported TEAD3 TAZ HTRF combined: Max % Inhibition
molecular target: TEAD3 TAZ (amino acids 13-57) (Homo sapiens); experiment: TEAD3-TAZ HTRF (TR-FRET) protein-protein interaction assay; assay type: binding; conditions: TEAD3, TAZ peptide, HTRF
RECORDED_ENDPOINT: TEAD3 TAZ HTRF combined: Max % Inhibition (%)

INSERT INTO results (molecule, value_reported) VALUES
  ('O=C(c1c(-c2nccc(C(F)(F)F)n2)nn2c(=O)cc(-c3ccc(C4CCCCC4)cc3)[nH]c12)N1CC(CF)C1', 61.0),
  ('CC(C)(C)c1ccc(COc2cc(=O)n3nc(-c4ncccn4)c(C(=O)N4CC(CF)C4)c3[nH]2)cc1', 45.0),
  ('CCc1ccnc(-c2nn3c(=O)cc(-c4ccc(C5CCCCC5)cc4)[nH]c3c2C(=O)N2CC(CF)C2)n1', 56.0),
  ('Cc1cncc(-c2nn3c(=O)cc(-c4ccc(C5CCCCC5)cc4)[nH]c3c2C(=O)N2CC(CF)C2)n1', 63.0),
  ('COc1ccnc(-c2nn3c(=O)cc(-c4ccc(C5CCCCC5)cc4)[nH]c3c2C(=O)N2CC(CF)C2)n1', 52.5),
  ('Cc1ccnc(-c2nn3c(=O)cc(-c4ccc(C5CCCCC5)cc4)[nH]c3c2C(=O)N2CC(CF)C2)c1', 43.0),
  ('O=C(c1c(-c2ccccn2)nn2c(=O)cc(-c3ccc(C4CCCCC4)cc3)[nH]c12)N1CC(CF)C1', 44.5),
  ('O=C(c1c(-c2ccccc2)nn2c(=O)cc(-c3ccc(C4CCCCC4)cc3)[nH]c12)N1CC(CF)C1', 61.0),
  ('O=C(c1c(-c2ncccn2)nn2c(=O)cc(-c3ccc(C4(C5CCCC5)CC4)cc3)[nH]c12)N1CC(CF)C1', 50.5),
  ('CN(C)C(=O)c1nn2c(=O)cc(-c3cc(F)c(C4CCCCC4)c(F)c3)[nH]c2c1C(=O)N1CC(CF)C1', 44.0),
  ('CC(C)c1ccc(COc2cc(=O)n3nc(-c4cnccn4)c(C(=O)N4CC(CF)C4)c3[nH]2)cc1', 48.0),
  ('Cc1nccnc1-c1nn2c(=O)cc(-c3ccc(C4CCCCC4)cc3)[nH]c2c1C(=O)N1C[C@@H](CF)[C@H]1C (single isomer, unassigned) [Isomer A, Example 41]', 70.0),
  ('O=C(c1c(-c2cccnc2)nn2c(=O)cc(-c3ccc(C4CCCCC4)cc3)[nH]c12)N1CC(CF)C1', 55.0),
  ('Cc1nccnc1-c1nn2c(=O)cc(-c3ccc(O[C@H](c4ccccc4)C(F)(F)F)cc3)[nH]c2c1C(=O)N1CC(CF)C1', 64.5);

Hello, the source for this data is patent US12692269B2, in case you need it.
